experiment: Antitumor activity against human U87MG cells after 24 to 72 hrs by MTT assay; assay type: functional, cell-based, U-87MG ATCC; conditions: U-87 MG
VALUE_TYPE: IC50 (µM)

>>> observed_measurement("C[C@H](NC(=O)/C(C#N)=C/c1cccc(Br)n1)c1ccccc1")
5.6
